Taken from PubChem BioAssay (NCI).

So I've got a bunch of molecules here, and I need their TGI values.
System: DU-145 prostate
Assay: NCI tumour cell line growth inhibition, 48 h

# query: TGI of entry "O=C(c1cccc2cc(O)ccc12)c1cn(CCN2CCOCC2)c2ccccc12" 73 µM

So what does the record say about TGI for CC1=CC2=C(C#N)C(=O)OC2(C)C(c2ccccc2)C1 (stereo not given) ? > 100 µM

State the recorded TGI for this entry: CNC(=O)OCC1=C(COC(=O)NC)C(C)N(c2ccccc2)C1 (stereo not given) > 100 µM

Can you share its TGI? I mean this molecule: "COc1ccc(C(=O)N(Cc2cccnc2)C(=S)N(Cc2cccnc2)C(=O)c2ccc(OC)cc2)cc1" > 100 µM

Look up TGI: N#CC(C(=O)O)C(c1c(Cl)cccc1Cl)C(C#N)C(=O)O (stereo not given) > 100 µM

Fill blank: measured TGI of the molecule "CCCCCC(=C/c1ccccc1)/C=N/N=C(N)N" is ____. 2.94 µM

Quick one: TGI for "COc1ccc2c(c1)c(=O)c1c(NCCCN(C)C)ccc3ncn2c31" ? 18.7 µM

// query TGI value for entry FC(F)(F)C1(c2ccccc2)SCc2nc3ccccc3n21 (stereo not given) > 100 µM

Which TGI is reported for this molecule? O=C1/C(=C\c2cccc(Oc3ccccc3)c2)SC(c2ccccc2)N1c1cccc(Cl)c1 (stereo not given) > 100 µM

I would be grateful if you could share the reported TGI for COc1c(N2CCN(CN3C(=O)C(=O)c4ccccc43)C(C)C2)c(F)cc2c(=O)c(C(=O)O)cn(C3CC3)c12 (stereo not given) . > 100 µM

###

Exercise: state measured TGI for each of the molecules provided.
System: MOLT-4 leukemia
Experiment: NCI tumour cell line growth inhibition, 48 h

Reported TGI for MOLT-4 leukemia, given Cc1nn(C(=O)c2ccncc2)c2c1C(c1ccc([N+](=O)[O-])cc1)SC(N)=N2 (stereo unspecified) ? > 100 µM

Recall the recorded TGI for "CC(=O)OCCCCn1cnc2c(Cl)nc(Nc3ccccc3)nc21" with MOLT-4 leukemia and state it. > 100 µM

So what TGI did CCCCCCC(O)C(O)CCC(O)C1CCC(CCCCC(O)CC2=CC(C)OC2=O)O1 (stereo unspecified) get with MOLT-4 leukemia? 43.9 µM

For the record "COc1ncc(C#CC(=O)c2ccccc2)c(OC)n1" , what value of TGI is listed for MOLT-4 leukemia? 2.38 µM

Kindly state the measured TGI obtained for CCC1(N)C(=O)OCc2c1cc1n(c2=O)Cc2cc3ccccc3nc2-1 (stereo unspecified) with MOLT-4 leukemia. > 41.7 µM

Value wanted: TGI (MOLT-4 leukemia) of entry "CCCCCN(CCCCC)C(=O)[C@H](CCC(=O)OCc1ccccc1)NC(=O)c1cc2ccccc2[nH]1" > 100 µM

###

Test system: A549 NSCLC
Assay: NCI tumour cell line growth inhibition, 48 h; in the data active = GI50 below about 0.43 µM; inactive = the rest
Choose one outcome from this list and give only that: active, inactive

Could you please tell me the result logged for "CC(C)=CCc1c(O)c(C(=O)CC(C)C)c(O)c2c(-c3ccccc3)cc(=O)oc12" in this assay? inactive

Called result for "COC(=O)[C@H](Cc1cn(C)cn1)NC(=O)[C@@H](NC(=O)Nc1cc(C(F)(F)F)cc(C(F)(F)F)c1)C(C)(C)C" inactive

Name the outcome recorded for COc1c(N2CCN(CN3C(=O)C(=O)c4ccccc43)C(C)C2)c(F)cc2c(=O)c(C(=O)O)cn(C3CC3)c12 (configuration not stated) in the assay. inactive

Call for entry "COc1ccc(-c2cc(-c3ccc(Cl)cc3)nc(SCCCCCCC(=O)NO)n2)cc1" : inactive

Hello, I am checking results. What call was entered for "COc1ccc(C(=O)c2cc(C)c(OC)c(C)c2)c(OC)c1N(C(=O)CCl)C(=O)CCl" ? active

In this assay, the call recorded for "COc1ccc2c(c1)c(-c1ccc(-c3cn(C)c4ccc(OC)cc34)o1)cn2C" was what? inactive

Identify the outcome logged in this assay for the compound shown: "COc1cccc(NC(=O)c2ccc(NC3=C(Cl)C(=O)N(Cc4ccccc4)C3=O)cc2)c1" inactive

###

System: RPMI-8226 leukemia
Assay: NCI tumour cell line growth inhibition, 48 h
measurement kind: TGI

Return reported TGI; argument: "CN(C(=O)c1ccc(Cl)cc1)C(=S)N1CCN(c2ccccc2)CC1" > 100 µM

Look up TGI for this compound: CC1(C)CC[C@]2(C(=O)O)CC[C@]3(C)C(=CC[C@@H]4[C@@]5(C)CC[C@H](OC6OC(CO)C(O)C(O)C6O)C(C)(C)[C@@H]5CC[C@]43C)[C@@H]2C1 (some centres undefined) 6.08 µM

Find the recorded TGI belonging to "CO/N=C(\C(=O)[N-][n+]1cnn(CC(=O)O)c1)c1csc(N)n1" and report it. > 10 µM

Consider the compound "OC[C@@H](O)[C@H](O)[C@@H](O)/C=N/Nc1ccc(Cl)nn1" and give its measured TGI. > 100 µM

Which TGI value is on record for "C#CCOC(=O)[C@@H](C)c1ccc2cc(OC)ccc2c1" ? > 100 µM

For the compound "C#CCN(Cc1nc2cc(C(F)(F)F)ccc2nc1-c1ccccc1)c1ccc(F)cc1" , what TGI is on record? 68.7 µM

Give its TGI value. Item: "COc1ccc(-c2cc(-c3ccc(Cl)cc3)nc(SCCCCCCC(=O)NO)n2)cc1" > 50 µM

Bench note: what TGI did "CCN(CC)CCOc1ccc(Cc2ccccc2)cc1" show? 76.1 µM

Given CC(c1ccccc1)C(O)S(=O)(=O)O (centres undefined) , state its recorded TGI. > 100 µM

Value lookup for TGI; key = "CC(C)(C)OC(=O)N1CCC(NC(=O)NC2CCN(C(=O)OC(C)(C)C)CC2)CC1" > 100 µM

Could you tell me which TGI is on file for C[C@H](C(O)CC(=O)C(C)(C)O)[C@H]1CC[C@@]2(C)[C@@H]3CC[C@H]4C(C)(C)[C@@H](OC5OC(COC6OC(CO)C(O)C(O)C6O)C(O)C(O)C5O)CC[C@]4(C)C3=CC[C@]12C (some centres undefined) ? > 100 µM

May I ask what TGI has been recorded for "COc1c(Cl)[c]([Hg][O]C(C)=O)c(NCC(C)=O)c(OC)[c]1[Hg][O]C(C)=O" ? 38.8 µM

Given the compound C[C@H]1[C@H](C)CC[C@]2(C(=O)OC3OC(CO)C(O)C(O)C3O)CC[C@]3(C)C(=CC[C@@H]4[C@@]5(C)C[C@@H](O)[C@@H]6OC(=O)c7cc(O)c(O)c(O)c7-c7c(cc(O)c(O)c7O)C(=O)OC[C@]6(CO)[C@@H]5CC[C@]43C)[C@H]12 (some centres undefined) , what is its reported TGI? > 100 µM

TGI for "CC(C)C[C@H](NC(=O)CCc1cccc2ccccc12)B(O)O" ? 3.95 µM

###

Test system: HT29 colon
Test: NCI tumour cell line growth inhibition, 48 h; in the data active = GI50 below about 0.43 µM; inactive = the rest
I would appreciate it if you answered using one of these outcomes: T (active), F (inactive)

What classification did "CCCCCCCCCC[N+](C)(C)C" end up with in this test? F

How was "Cc1cc(C)c(O)c(CNCCCNCc2cc(C)cc(C)c2O)c1" classified in this test? F

Test call, this compound: COC1C(O)CC(OC2CC(OC3CC(O[C@@H]4C(=O)c5c(cc6cc(OC7CC(OC8CC(O)C(O)C(C)O8)C(O)C(C)O7)c(C)c(O)c6c5O)CC4[C@H](OC)[C@@H](O)C(C)=O)OC(C)C3O)OC(C)C2O)OC1C (some centres undefined) T

Recorded test outcome, item C=C(C)[C@@H]1CC[C@]2(CN)CC[C@]3(C)[C@H](CC[C@@H]4[C@@]5(C)CCC(N)[C@@](C)(CO)[C@@H]5CC[C@]43C)[C@@H]12 (some centres undefined) F

###

System: TK-10 renal
Experiment: NCI tumour cell line growth inhibition, 48 h
Provide the recorded TGI for the entries that follow.

Returns the measured TGI for the input compound. Input: "C[C@]12CC/C(=N\O)C=C1CC[C@@H]1[C@@H]2CC[C@]2(C)C(=N/O)/C(=C/c3ccncc3)C[C@@H]12" > 100 µM

I have this compound here, "COc1c(Cl)[c]([Hg][O]C(C)=O)c(NCC(C)=O)c(OC)[c]1[Hg][O]C(C)=O" , and I need its recorded TGI. 27.7 µM

Give the measured TGI of "S=C1SCN(C2CCCCCCCCCCC2)CN1C1CCCCCCCCCCC1" . > 100 µM

Please look up its TGI: "COc1cc2c(cc1OC)-c1ncc3cc(OC)c(OC)c(OC)c3c1C2" > 100 µM

What value of TGI has been recorded for this entry: "O=C1c2cc([N+](=O)[O-])sc2C(=O)c2cc([N+](=O)[O-])sc21" 13 µM

Given the compound CC1=CC2=C(C#N)C(=O)OC2(C)C(c2ccccc2)C1 (centres undefined) , what is its reported TGI? > 100 µM

State the recorded TGI for this entry: "O=C(COC(=O)c1cccc2c(=O)c3ccccc3[nH]c12)Nc1ccc(S(=O)(=O)Nc2ncccn2)cc1" > 100 µM

Entry under review: N#CC1=C(S)N(C2OC(CO)C(O)C(O)C2O)C(c2ccccc2)=CC1c1cccs1 (centres undefined) . Reported TGI? 48.2 µM

What value of TGI has been reported for the following compound? "COC(=O)[C@]1(Cc2ccc3ccccc3c2)CCCCCCN1C(=O)c1ccccc1" > 80.8 µM
